Test system: A549
test: Anticancer activity against human A549 cells overexpressing wild type EGFR assessed as reduction in cell viability measured after 72 hrs by MTT assay
Assay type: functional, cell-based
settings: A549, 72 h
The molecules listed here are annotated with their IC50.
parameter_measured: IC50

                                    molecule  parameter_measured  test_result
 0  CCOC(=O)c1c(-n2ccnc2)nc2ccc(Br)cc2c1N1CCN(c2ccccc2NC(=O)C2CC(=O)C2)CC1                IC50      7.94 µM
 1  CCOC(=O)c1c(-n2ccnc2)nc2ccc(Br)cc2c1N1CCN(c2ccccc2NC(=O)c2ccccc2F)CC1                IC50      4.88 µM
 2  CCOC(=O)c1c(-n2ccnc2)nc2ccc(Br)cc2c1N1CCN(c2ccccc2NC(=O)c2cccc(OC)c2OC)CC1                IC50      8.73 µM
 3  CCOC(=O)c1c(-n2ccnc2)nc2ccc(Br)cc2c1N1CCN(c2ccccc2NS(=O)(=O)c2ccc(Cl)cc2)CC1                IC50      5.64 µM
 4  CCOC(=O)c1c(-n2ccnc2)nc2ccc(Br)cc2c1N1CCN(c2ccccc2NS(=O)(=O)c2ccc(C#N)cc2)CC1                IC50      5.82 µM
 5  CCOC(=O)c1c(-n2ccnc2)nc2ccc(Br)cc2c1N1CCNCC1                IC50      11.4 µM
 6  CCCc1cc(C(=O)Nc2ccccc2N2CCN(c3c(C(=O)OCC)c(-n4ccnc4)nc4ccc(Br)cc34)CC2)n(C)n1                IC50      8.22 µM
 7  CCOC(=O)c1c(-n2ccnc2)nc2ccc(Br)cc2c1N1CCN(c2ccccc2NC(=O)c2cccc(Br)c2)CC1                IC50      4.92 µM
 8  C=CC(=O)Nc1cc(Nc2nccc(-c3cn(C)c4ccccc34)n2)c(OC)cc1N(C)CCN(C)C [OSIMERTINIB]                IC50      0.92 µM
 9  CCOC(=O)c1c(-n2ccnc2)nc2ccc(Br)cc2c1N1CCN(c2ccccc2NS(=O)(=O)c2ccc(I)cc2)CC1                IC50       5.6 µM
10  CCOC(=O)c1c(-n2ccnc2)nc2ccc(Br)cc2c1N1CCN(c2ccccc2NS(=O)(=O)c2ccc(C(F)(F)F)cc2)CC1                IC50      0.99 µM
11  CCOC(=O)c1c(-n2ccnc2)nc2ccc(Br)cc2c1N1CCN(c2ccccc2NS(=O)(=O)c2ccc(F)c(F)c2)CC1                IC50      1.09 µM
12  CCOC(=O)c1c(-n2ccnc2)nc2ccc(Br)cc2c1N1CCN(c2ccccc2NS(=O)(=O)c2ccc(C(C)(C)C)cc2)CC1                IC50      10.8 µM
13  CCOC(=O)c1c(-n2ccnc2)nc2ccc(Br)cc2c1N1CCN(c2ccccc2[N+](=O)[O-])CC1                IC50      6.09 µM
14  CCOC(=O)c1c(-n2ccnc2)nc2ccc(Br)cc2c1N1CCN(c2ccccc2NS(=O)(=O)c2cccc(C#N)c2)CC1                IC50      5.99 µM
15  CCOC(=O)c1c(-n2ccnc2)nc2ccc(Br)cc2c1N1CCN(c2ccccc2NS(=O)(=O)C2CC2)CC1                IC50      7.84 µM
